Reference source: patent US11834391B2

System: P. falciparum strain Pf3D70087/N9
Experiment: In vivo antimalarial activity in humanized mouse model for P. falciparum infection
Design: species or system Plasmodium falciparum
Settings: female NODscidIL2Rγnull mice, single oral dose 50 mg/kg at day 4 post infection
property: In vivo efficacy log reduction in parasitemia in Pf SCID mouse at 50 mg/kg p.o. 1 × QD

For C[C@@H](CNC(=O)[C@H](O)C(C)(C)CO)NC(=O)c1cc(F)c(F)cc1F the molecule record lists In vivo efficacy log reduction in parasitemia in Pf SCID mouse at 50 mg/kg p.o. 1 × QD as >3

In vivo efficacy log reduction in parasitemia in Pf SCID mouse at 50 mg/kg p.o. 1 × QD recorded for this molecule, C[C@@H](CNC(=O)[C@H](O)C(C)(C)CO)NC(=O)c1cc(C#N)ccc1F , is 2.4

C[C@@H](CNC(=O)[C@H](O)C(C)(C)CO)NC(=O)c1cccc(C#N)c1 yielded In vivo efficacy log reduction in parasitemia in Pf SCID mouse at 50 mg/kg p.o. 1 × QD of >3

So, C[C@@H](CNC(=O)[C@H](O)C(C)(C)CO)NC(=O)c1cccc(F)c1 [Compound E1] ? Its In vivo efficacy log reduction in parasitemia in Pf SCID mouse at 50 mg/kg p.o. 1 × QD was >3

###

Test: Metabolic stability in human primary hepatocytes (hepatocyte relay assay)
Format: in vitro ADME
Conditions: primary hepatocytes (hepatocyte relay assay); human primary hepatocytes, relay assay, 10 μM; average of two replicate experiments; read-out: T½ average
property: half-life at 10 μM (h)
# output: bare number, implied unit h

Notebook: C[C@@H](CNC(=O)[C@H](O)C(C)(C)CO)NC(=O)c1cc(C#N)ccc1F , half-life at 10 μM read as 107

Form: compound = C[C@@H](CNC(=O)[C@H](O)C(C)(C)CO)NC(=O)c1cccc(C#N)c1 ; half-life at 10 μM = 84.1

Entry under test: C[C@@H](CNC(=O)[C@H](O)C(C)(C)CO)NC(=O)c1cc(F)c(F)cc1F . Its half-life at 10 μM was 59.4

The reported value for C[C@@H](CNC(=O)[C@H](O)C(C)(C)CO)NC(=O)c1cccc(F)c1 [Compound E1] in terms of half-life at 10 μM is 42.2

###

Provide the recorded hepatocyte CLint at 10 μM for the entries that follow.
Assay: Metabolic stability in human primary hepatocytes (hepatocyte relay assay)
Format: in vitro ADME
Details: primary hepatocytes (hepatocyte relay assay); human primary hepatocytes, relay assay, 10 μM; average of two replicate experiments
Express your answer in µL/min/1e6 cells, writing the number without its unit.

Briefly, hepatocyte CLint at 10 μM measured for C[C@@H](CNC(=O)[C@H](O)C(C)(C)CO)NC(=O)c1cccc(F)c1 [Compound E1] : 0.5

Please fill in: hepatocyte CLint at 10 μM reported for C[C@@H](CNC(=O)[C@H](O)C(C)(C)CO)NC(=O)c1cc(F)c(F)cc1F [Compound A1] = 0.4

Sure, the documented hepatocyte CLint at 10 μM for C[C@@H](CNC(=O)[C@H](O)C(C)(C)CO)NC(=O)c1cccc(C#N)c1 [Compound C1] is 0.3

compound C[C@@H](CNC(=O)[C@H](O)C(C)(C)CO)NC(=O)c1cc(C#N)ccc1F [Compound B1] , hepatocyte CLint at 10 μM observed: 0.2
